Target: ATP-dependent translocase ABCB1 (Homo sapiens)
Sequence (P08183 whole entry): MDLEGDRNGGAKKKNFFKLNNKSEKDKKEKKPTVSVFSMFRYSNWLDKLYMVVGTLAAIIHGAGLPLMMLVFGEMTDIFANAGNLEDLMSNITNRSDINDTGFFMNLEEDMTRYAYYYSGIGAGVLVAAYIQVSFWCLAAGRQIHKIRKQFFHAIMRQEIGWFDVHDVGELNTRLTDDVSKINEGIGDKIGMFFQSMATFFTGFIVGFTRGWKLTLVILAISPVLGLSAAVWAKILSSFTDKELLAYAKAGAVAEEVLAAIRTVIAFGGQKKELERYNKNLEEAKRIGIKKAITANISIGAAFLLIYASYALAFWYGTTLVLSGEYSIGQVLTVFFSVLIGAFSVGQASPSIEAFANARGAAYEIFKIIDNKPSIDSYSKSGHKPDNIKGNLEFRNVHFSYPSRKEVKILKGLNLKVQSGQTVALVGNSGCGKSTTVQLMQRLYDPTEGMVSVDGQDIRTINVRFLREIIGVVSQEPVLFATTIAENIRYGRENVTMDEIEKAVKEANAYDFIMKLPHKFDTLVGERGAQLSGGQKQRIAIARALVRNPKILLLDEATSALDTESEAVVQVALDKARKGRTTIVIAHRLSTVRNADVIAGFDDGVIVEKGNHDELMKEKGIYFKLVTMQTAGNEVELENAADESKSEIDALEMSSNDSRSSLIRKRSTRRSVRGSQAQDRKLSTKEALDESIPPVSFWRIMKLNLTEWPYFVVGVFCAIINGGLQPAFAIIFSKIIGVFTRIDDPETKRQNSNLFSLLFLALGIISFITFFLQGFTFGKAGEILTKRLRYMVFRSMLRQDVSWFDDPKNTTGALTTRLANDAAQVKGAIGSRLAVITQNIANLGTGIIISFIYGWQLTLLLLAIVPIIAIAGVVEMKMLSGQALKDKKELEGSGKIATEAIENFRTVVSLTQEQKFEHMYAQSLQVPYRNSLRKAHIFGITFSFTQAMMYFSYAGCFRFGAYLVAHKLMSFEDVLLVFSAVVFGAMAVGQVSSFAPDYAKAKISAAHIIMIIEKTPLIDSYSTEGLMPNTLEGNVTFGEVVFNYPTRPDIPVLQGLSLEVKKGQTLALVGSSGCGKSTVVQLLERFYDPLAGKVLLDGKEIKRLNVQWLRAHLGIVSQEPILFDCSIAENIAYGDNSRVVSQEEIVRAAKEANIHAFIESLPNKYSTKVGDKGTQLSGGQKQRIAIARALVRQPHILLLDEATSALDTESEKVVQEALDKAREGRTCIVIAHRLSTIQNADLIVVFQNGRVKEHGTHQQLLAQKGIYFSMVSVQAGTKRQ
Where a SMILES comes first, the peptide text is derived from it. [ ]: non-standard residue; d: D form. MeBmt = C/C=C/C[C@@H](C)[C@@H](O)[C@H](NC)C(=O)O; Val(2S-OH) = CC(C)[C@](N)(O)C(=O)O; NMeL = CN[C@@H](CC(C)C)C(=O)O; NMeV = CN[C@H](C(=O)O)C(C)C; Sar = CNCC(=O)O
Below: a set of entries, each annotated with reported pIC50.
pIC50 is defined as minus the log10 of a concentration measured in mol/L.

Please review the following examples before continuing.
[
  {
    "compound": "CC(C)C[C@H]1C(=O)N[C@@H](C(C)C)C(=O)N(C)[C@@H](CC(C)C)C(=O)N[C@@H](C)C(=O)N[C@H](C)C(=O)N(C)[C@@H](CC(C)C)C(=O)N(C)[C@@H](CC(C)C)C(=O)N(C)[C@@H](C(C)C)C(=O)N(C)[C@@H](CC(C)C)C(=O)N[C@@H](C(C)C)C(=O)N(C)CC(=O)N1C (cyclo(A[dA][NMeL][NMeL][NMeV][NMeL]V[Sar][NMeL]V[NMeL]))",
    "value.observed": 5.15
  },
  {
    "compound": "C/C=C/C[C@@H](C)[C@@H](O)[C@H]1C(=O)N[C@@H]([C@@H](C)O)C(=O)NCC(=O)N(C)[C@@H](CC(C)C)C(=O)N[C@@H](CC(C)C)C(=O)N(C)[C@@H](CC(C)C)C(=O)N[C@@H](C)C(=O)N[C@](O)(C(C)C)C(=O)N(C)[C@@H](CC(C)C)C(=O)N[C@@H](CC(C)C)C(=O)N(C)[C@@H](C(C)C)C(=O)N1C (cyclo(A[Val(2S-OH)][NMeL]L[NMeV][MeBmt]TG[NMeL]L[NMeL]))",
    "value.observed": 5.40
  }
]

Field: next compound
Exam item: pIC50 for CC[C@@H]1NC(=O)[C@H](CC2CCCCC2)N(C)C(=O)[C@H](C(C)C)N(C)C(=O)[C@H](CC(C)C)N(C)C(=O)[C@H](CC(C)C)N(C)C(=O)[C@@H](C)NC(=O)[C@H](C)NC(=O)[C@H](CC(C)C)N(C)C(=O)[C@H](C(C)C)NC(=O)[C@H](CC(C)C)N(C)C(=O)CN(C)C1=O ?
Marked response: 5.09
